# Test system: HOP-92 NSCLC
# protocol details: NCI tumour cell line growth inhibition, 48 h; in the data active means GI50 below about 0.43 µM; inactive means the rest
Thanks in advance; please answer with one of these: 1 (active), 0 (inactive)

Challenge: For CCc1ccc2c(c1)C(=O)c1c-2n(CCCN=[N+]=[N-])c(=O)c2cc([N+](=O)[O-])ccc12 , which call appears in the assay record?
Response given: 0

Challenge: For CC(C)[C@H](O)C(=O)N[C@@H](C)C(=O)N[C@@H]1C(=O)N(C)CCc2ccccc21 , which call appears in the assay record?
Response given: 0

Challenge: For N[C@H](CCC(=O)N[C@@H](Cc1c[nH]c2ccccc12)C(=O)O)C(=O)O , which call appears in the assay record?
Response given: 0

Challenge: For CCCc1cc(=O)n2c(C(=O)Nc3ccc(Cl)cc3C)c(C(=O)Nc3ccc(F)cc3)sc2n1 , which call appears in the assay record?
Response given: 1

Challenge: For O=C(Nc1cc(Nc2ncccc2-c2ncnc3nc[nH]c23)ccc1F)c1cc(C(F)(F)F)cc(C(F)(F)F)c1 , which call appears in the assay record?
Response given: 0

----------
Hi there, I'd appreciate the recorded TGI for every entry that follows.
# Tested on: CAKI-1 renal
# protocol details: NCI tumour cell line growth inhibition, 48 h

Challenge: Item: COC(=O)C1C(O)C(C(=O)OC)C(C)N(C)C1C (stereo unspecified) Test system: CAKI-1 renal Read-out: TGI Value: ?
Response given: > 100 µM

Challenge: Item: CCOP(=O)(OCC)C(C(=O)OC)C(=O)C(=O)Nc1ccc(Cl)cc1Cl (stereo unspecified) Test system: CAKI-1 renal Read-out: TGI Value: ?
Response given: > 100 µM

Challenge: Item: O=C1CCCN1c1ccccc1I(=O)=O Test system: CAKI-1 renal Read-out: TGI Value: ?
Response given: > 100 µM

Challenge: Item: O=C1c2ccccc2-c2c1c1ccccc1c(=O)n2CCN1CCNCC1 Test system: CAKI-1 renal Read-out: TGI Value: ?
Response given: 2.9 µM

Challenge: Item: COC(=O)c1cc2c(cc1CC1Cc3cc4c(cc3C1)CCC4)CCC2 Test system: CAKI-1 renal Read-out: TGI Value: ?
Response given: > 100 µM

Challenge: Item: Cc1cc(-c2nc3ccccc3s2)ccc1NC(=O)[C@@H](N)CCCCN Test system: CAKI-1 renal Read-out: TGI Value: ?
Response given: 20.8 µM

----------
# Test system: CCRF-CEM leukemia
# protocol details: NCI tumour cell line growth inhibition, 48 h; in the data active = GI50 below about 0.43 µM; inactive = the rest
Thanks in advance; please answer with one of these: active, inactive

Challenge: For COc1ccc(-c2nccn2-c2ccc(OC)cc2)cc1 , which call appears in the assay record?
Response given: inactive

Challenge: For O=C(/C(=C\c1c(-c2ccccc2)[nH]c2ccccc12)S(=O)(=O)c1ccccc1)c1ccccc1 , which call appears in the assay record?
Response given: inactive

Challenge: For N[C@H](CCC(=O)N[C@@H](Cc1c[nH]c2ccccc12)C(=O)O)C(=O)O , which call appears in the assay record?
Response given: inactive

Challenge: For COc1cccc(/C=N/[N-]C(=O)c2ccncc2)c1[O-].COc1cccc(/C=N/[N-]C(=O)c2ccncc2)c1[O-].[O]=[U](=[O])([OH2+])[OH2+] , which call appears in the assay record?
Response given: inactive

Challenge: For Cc1cc(Nc2nc(-c3cn(-c4ccc(Cl)cc4)nn3)nc3ccccc23)n[nH]1 , which call appears in the assay record?
Response given: inactive

Challenge: For COc1cc2c(/C=N\N=C(N)N)c[nH]c2cc1C , which call appears in the assay record?
Response given: inactive

Challenge: For CCCCCCCCCCNC(=O)CI , which call appears in the assay record?
Response given: active

----------
# System: MALME-3M melanoma
# protocol details: NCI tumour cell line growth inhibition, 48 h
Hi there, I'd appreciate the recorded TGI for every entry that follows.

Challenge: Give its TGI value. Item: c1csc(-c2ccc(-c3cccs3)c3nsnc23)c1
Response given: > 55.8 µM

Challenge: Give its TGI value. Item: COC(=O)C(=O)C(C(C)=O)C(=O)NCc1ccc(OC)c(OC)c1 (stereo not drawn)
Response given: > 100 µM

Challenge: Give its TGI value. Item: O=C1Sc2ccccc2C(=O)N2CSCC12 (stereo not drawn)
Response given: > 100 µM

Challenge: Give its TGI value. Item: NC(=O)C(=O)CC(=O)c1ccccc1NC1=CC(=O)C(=O)c2ccccc21
Response given: > 59 µM

Challenge: Give its TGI value. Item: COc1ccc(-c2c3c([nH]c(=S)c2C#N)CC(C)(C)CC3=O)cc1
Response given: > 100 µM

Challenge: Give its TGI value. Item: CCCC/C(=C\C1=C(C)C(=O)C(OC)=C(OC)C1=O)C(=O)O
Response given: > 100 µM

Challenge: Give its TGI value. Item: O=C(Nc1ccccc1F)c1cc2ccc(O)cc2oc1=Nc1ccccc1F
Response given: 3.44 µM

Challenge: Give its TGI value. Item: CC[n+]1[b-](C(C)(C)C)n(/N=C/C(C)(C)C)[b-](C(C)(C)C)[n+]1CC
Response given: > 100 µM

Challenge: Give its TGI value. Item: O=C(Oc1cc(=O)c(OC(=O)c2ccccc2)co1)c1ccccc1
Response given: > 100 µM

Challenge: Give its TGI value. Item: CCOC(=O)c1c(-c2ccccc2)c(-c2ccccc2)cn1C
Response given: > 10 µM

Challenge: Give its TGI value. Item: CN(C(=O)c1ccc([N+](=O)[O-])cc1)c1ccccc1
Response given: > 100 µM

Challenge: Give its TGI value. Item: O=C(/C=C/c1ccccc1)c1ccccc1
Response given: > 10 µM

Challenge: Give its TGI value. Item: CC(C)=C1CCC(CN(C)C)C1=O (stereo not drawn)
Response given: 30.2 µM

Challenge: Give its TGI value. Item: Cc1cc(N/N=C/c2ccccn2)nc2ccccc12
Response given: 10.2 µM

Challenge: Give its TGI value. Item: CCCCn1cnc2c(c(CC#N)nn2-c2ccccc2)c1=N
Response given: > 100 µM

Challenge: Give its TGI value. Item: Nc1ccccc1O.O.O=C(O)C1[O][Sb][O]C1C(=O)O (stereo not drawn)
Response given: 4.97 µM

Challenge: Give its TGI value. Item: CCc1ccc2c(c1)C(=O)c1c-2n(CCCN=[N+]=[N-])c(=O)c2cc([N+](=O)[O-])ccc12
Response given: > 50 µM

Challenge: Give its TGI value. Item: COc1ccc(/C(C)=C(\c2ccc(OCCN3CCCCCC3)cc2)c2ccc(OC(=O)C3CCCCC3)cc2)cc1
Response given: 2.14 µM

Challenge: Give its TGI value. Item: O=[N+]([O-])c1cccc(C2=NOC(C3CCCCC3)C2)c1 (stereo not drawn)
Response given: > 100 µM

Challenge: Give its TGI value. Item: CCOC(CNCCC(=O)OC)OCC
Response given: > 10 µM

Challenge: Give its TGI value. Item: CC(=O)O/N=C/c1c2ccccc2cc2ccccc12
Response given: > 100 µM

Challenge: Give its TGI value. Item: C(/C=C(\Nc1ccccc1)C12CC3CC(CC(C3)C1)C2)=Nc1ccccc1
Response given: 36.9 µM

Challenge: Give its TGI value. Item: CCOC(=O)NC(=O)c1cn(C2CCCCC2)c(=O)[nH]c1=O
Response given: > 100 µM

----------
# System: HCT-15 colon
# protocol details: NCI tumour cell line growth inhibition, 48 h; in the data active = GI50 below about 0.43 µM; inactive = the rest
Thanks in advance; please answer with one of these: label 1 (active), label 0 (inactive)

Challenge: For O=C(NCc1ccc(Cn2c(=O)sn(-c3ccccc3)c2=O)cc1)OCc1ccc2cccc(O)c2n1 , which call appears in the assay record?
Response given: label 1

Challenge: For COc1cc2c(/C=N\N=C(N)N)c[nH]c2cc1C , which call appears in the assay record?
Response given: label 0

Challenge: For CCN(CC)CCCCCCNc1cccc2cc(Br)cnc12 , which call appears in the assay record?
Response given: label 0

Challenge: For COc1ccc(-c2cnnn2-c2nonc2-n2cccc2)cc1 , which call appears in the assay record?
Response given: label 1

Challenge: For COc1cccc(/C=N/[N-]C(=O)c2ccncc2)c1[O-].COc1cccc(/C=N/[N-]C(=O)c2ccncc2)c1[O-].[O]=[U](=[O])([OH2+])[OH2+] , which call appears in the assay record?
Response given: label 0

Challenge: For O=C1c2ccccc2-c2c1c1ccccc1c(=O)n2CCN1CCNCC1 , which call appears in the assay record?
Response given: label 0

Challenge: For OC(c1cc(-c2ccc(C(F)(F)F)cc2)nc(C(F)(F)F)c1)C1CCCCN1 (stereo not drawn) , which call appears in the assay record?
Response given: label 0

Challenge: For O=C(c1ccco1)c1c(C(F)(F)F)n([O-])c2ccc(C(F)(F)F)cc2[n+]1=O , which call appears in the assay record?
Response given: label 1

----------
# System: HCC-2998 colon
# protocol details: NCI tumour cell line growth inhibition, 48 h; in the data active = GI50 below about 0.43 µM; inactive = the rest
Thanks in advance; please answer with one of these: active, inactive

Challenge: For COc1cc2c(Nc3cc(Cl)c(OC)c(Cl)c3)c(C#N)cnc2cc1OCCCN1CCN(C)CC1 , which call appears in the assay record?
Response given: inactive

Challenge: For CC(C)[C@H](O)C(=O)N[C@@H](C)C(=O)N[C@@H]1C(=O)N(C)CCc2ccccc21 , which call appears in the assay record?
Response given: inactive

Challenge: For CCCc1cc(=O)n2c(C(=O)Nc3ccc(Cl)cc3C)c(C(=O)Nc3ccc(F)cc3)sc2n1 , which call appears in the assay record?
Response given: inactive

Challenge: For Cc1ccc(OCCOCCOCCOCCOc2ccc(C)n(O)c2=S)c(=S)n1O , which call appears in the assay record?
Response given: active

Challenge: For c1ccc2c(c1)[nH]c1c2cc[n+]2cc3c(cc12)CCCC3 , which call appears in the assay record?
Response given: inactive
